Biological target: Alpha-1A adrenergic receptor (Homo sapiens, UniProt P35348); also: assay procedure not described here
Sequence (P35348 whole entry): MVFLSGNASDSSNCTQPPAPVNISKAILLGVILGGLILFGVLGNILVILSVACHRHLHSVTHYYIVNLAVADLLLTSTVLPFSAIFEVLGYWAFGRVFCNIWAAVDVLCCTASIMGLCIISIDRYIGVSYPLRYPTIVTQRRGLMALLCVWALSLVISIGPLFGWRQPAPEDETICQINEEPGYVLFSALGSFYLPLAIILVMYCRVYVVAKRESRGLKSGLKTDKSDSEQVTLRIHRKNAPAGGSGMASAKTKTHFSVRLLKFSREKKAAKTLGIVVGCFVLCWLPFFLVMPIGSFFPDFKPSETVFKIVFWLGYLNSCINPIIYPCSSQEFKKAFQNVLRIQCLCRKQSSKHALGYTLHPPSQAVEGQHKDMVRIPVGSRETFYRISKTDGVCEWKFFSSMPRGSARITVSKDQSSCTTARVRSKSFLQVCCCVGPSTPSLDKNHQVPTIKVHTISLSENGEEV
Type: functional, cell-based
TEST READOUT: AC50

Examples with their reported AC50 follow.
MOLECULE	RESULT
Clc1ccc2c(c1)C(c1ccccc1)=NCc1nncn1-2	> 30 µM
CCN(CC)C(=O)C1(c2ccccc2)CC1CN (stereo not drawn)	> 30 µM
CC1(C)C(/C=C/C=C/C=C/C=C2\N(CCCCS(=O)(=O)O)c3ccc4ccccc4c3C2(C)C)=[N+](CCCCS(=O)(=O)[O-])c2ccc3ccccc3c21 [INDOCYANINE GREEN ACID FORM]	> 30 µM
O=C1CN2Cc3c(ccc(Cl)c3Cl)N=C2N1 [ANAGRELIDE]	> 30 µM
CN1c2ccccc2C(NCCCCCCC(=O)O)c2ccc(Cl)cc2S1(=O)=O (stereo not drawn)	> 30 µM
[H]/N=C(/N)N[C@H]1[C@H](O)[C@@H](O)[C@H](O[C@@H]2O[C@@H](C)[C@](O)(C=O)[C@H]2O[C@@H]2O[C@@H](CO)[C@H](O)[C@@H](O)[C@@H]2NC)[C@@H](N/C(N)=N\[H])[C@@H]1O	> 30 µM

Tell us which AC50 value is on record for `CC(=O)OCC(CCn1cnc2cnc(N)nc21)COC(C)=O` > 30 µM

Given the molecule `CN1CCN(c2c(F)cc3c(=O)c(C(=O)O)cn4c3c2SCC4)CC1` , write its reported AC50. > 30 µM
